Consider the following compounds; for each one, report its LC retention time.
- experiment notes: RP, Waters ACQUITY UPLC BEH C18, 100 × 2.1 mm, 1.7 µm, 35 °C, 0.35 mL/min, estimated dead time 0.63 min; A: water + 0.01% formic acid + 5 mM ammonium formate, pH 3.71; B: acetonitrile + 0.01% formic acid, pH 3.71; gradient (min/%B) 0/5 0.5/5 16/95 16.1/99 19/99 19.1/5 21/5
- experimental conditions: stereoisomer not certain
A number alone suffices; assume min.

Bench note: what LC retention time did NC(=O)c1ccccc1Oc1ccccc1 [Phenoxybenzamide] show? 8.66

Thanks! And COCC(NC(C)=O)C(=O)NCc1ccccc1 (stereo unspecified) [Lacosamide] ? 4.46

Thanks! And O=P(Oc1ccccc1)(Oc1ccccc1)Oc1ccccc1 [Phosphate-Triphenyl] ? 11.8

Thanks! And `Nc1ncn[nH]1` ? 0.88

Thanks! And `O=C(O)c1cn(C2CC2)c2cc(N3CCNCC3)c(F)cc2c1=O` ? 4.13

Thanks! And C1=CCC(c2cccnc2)NC1 (stereo unspecified) ? 1.27
